targetOrTestSystem: NS3/NS4 complexes (Hepatitis C virus genotype 1a, UniProt P27958)
Sequence (P27958 1027-1657): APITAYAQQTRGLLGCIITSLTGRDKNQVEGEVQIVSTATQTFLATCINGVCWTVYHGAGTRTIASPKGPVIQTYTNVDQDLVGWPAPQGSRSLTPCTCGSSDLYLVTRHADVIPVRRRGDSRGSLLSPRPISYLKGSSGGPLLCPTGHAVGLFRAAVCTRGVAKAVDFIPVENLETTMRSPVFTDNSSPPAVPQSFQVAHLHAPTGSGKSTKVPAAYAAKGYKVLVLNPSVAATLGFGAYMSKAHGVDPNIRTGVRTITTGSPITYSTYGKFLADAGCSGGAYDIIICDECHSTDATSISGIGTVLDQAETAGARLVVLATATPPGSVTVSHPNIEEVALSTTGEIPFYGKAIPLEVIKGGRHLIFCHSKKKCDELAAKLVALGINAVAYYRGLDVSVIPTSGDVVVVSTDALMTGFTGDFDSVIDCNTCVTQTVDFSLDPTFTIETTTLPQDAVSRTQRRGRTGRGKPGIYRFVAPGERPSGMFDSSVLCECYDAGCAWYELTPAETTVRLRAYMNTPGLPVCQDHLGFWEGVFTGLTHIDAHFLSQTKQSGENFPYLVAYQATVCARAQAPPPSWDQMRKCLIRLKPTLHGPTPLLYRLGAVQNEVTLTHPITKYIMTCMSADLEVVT
Sequence (P27958 1658-1711): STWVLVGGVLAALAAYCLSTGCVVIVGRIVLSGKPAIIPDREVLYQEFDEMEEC
assayExplanation: NS3/NS4 inhibition activity (IC50)
Type: biochemical
testConditions: Table 3, read-out: IC50
pIC50: −log10 of the molar value.
Exercise: for every item that follows, state its recorded pIC50.

> print(dat)
                            molecularstring                        targetortestsystem  result
1  Cc1cccc2nc(O[C@@H]3C[C@H]4C(=O)N[C@]5(C(=O)NS(=O)(=O)N(C)C)C[C@H]5/C=C\CCCCC[C@H](NC(=O)OC(C)(C)C)C(=O)N4C3)n(C(C)C)c12  NS3/NS4 complexes (Hepatitis C virus genotype 1a, UniProt P27958)  > 8.00
2  Cc1ccc2nc(O[C@@H]3C[C@H]4C(=O)N[C@]5(C(=O)NS(=O)(=O)N(C)C)C[C@H]5/C=C\CCCCC[C@H](NC(=O)OC(C)(C)C)C(=O)N4C3)n(C(C)C)c2c1  NS3/NS4 complexes (Hepatitis C virus genotype 1a, UniProt P27958)  > 8.00
3  CC1(S(=O)(=O)NC(=O)[C@@]23C[C@H]2/C=C\CCCCC[C@H](Nc2ccc(F)cc2)C(=O)N2C[C@H](OC(=O)N4Cc5cccc(F)c5C4)C[C@H]2C(=O)N3)CC1  NS3/NS4 complexes (Hepatitis C virus genotype 1a, UniProt P27958)  > 8.00

Now consider the entry below.
Inquiry: Any idea what its pIC50 is? The molecule is CC(C)(C)OC(=O)N[C@H]1CCCCC/C=C\[C@@H]2C[C@@]2(C(=O)NOc2ccccc2)NC(=O)[C@@H]2C[C@@H](Oc3nc4ccccc4o3)CN2C1=O
Reply text: < 7.00
